Test system: CYP3A4
Test: Cocktail method in rats: pharmacokinetics of probe drug midazolam (CYP3A4 activity)
Conditions: male, Wistar, rat, plasma, iv, 5 mg/kg, T1/2, positive group (phenobarbital 50 mg/kg ip 7 days), midazolam 5 mg/kg iv
test_readout: half-life (min)
Respond numerically; units are min and should not be typed.

Write down half-life measured for item Cc1ncc2n1-c1ccc(Cl)cc1C(c1ccccc1F)=NC2
6.3
